Test: Two-way crossover drug interaction study: plasma ritonavir PK with (Treatment A) and without (Treatment B) TH9507
Format: in vivo, human
Conditions: both sexes, human, plasma, oral, 100 mg; read-out: AUC0-t Treatment B
Metric name: AUC(0-t)

Query: For the molecule shown here, CC(C)c1nc(CN(C)C(=O)N[C@H](C(=O)N[C@@H](Cc2ccccc2)C[C@H](O)[C@H](Cc2ccccc2)NC(=O)OCc2cncs2)C(C)C)cs1 , give the reported AUC(0-t).
Response: 3720 ng·h/mL

----------
Assay: Two-way crossover drug interaction study: plasma ritonavir PK with (Treatment A) and without (Treatment B) TH9507
Format: in vivo, human
Details: both sexes, human, plasma, oral, 100 mg; read-out: T1/2 Treatment B (converted)
Metric name: half-life (h)
Record the value in h, omitting the unit from your answer.

Query: For the compound shown here, CC(C)c1nc(CN(C)C(=O)N[C@H](C(=O)N[C@@H](Cc2ccccc2)C[C@H](O)[C@H](Cc2ccccc2)NC(=O)OCc2cncs2)C(C)C)cs1 [Ritonavir] , give the reported half-life.
Response: 6.26

----------
Test: Two-way crossover drug interaction study: plasma ritonavir PK with (Treatment A) and without (Treatment B) TH9507
Format: in vivo, human
Conditions: both sexes, human, plasma, oral; read-out: Tmax Treatment A
Metric name: Tmax (h)
Record the value in h, omitting the unit from your answer.

Query: For the compound shown here, CC(C)c1nc(CN(C)C(=O)N[C@H](C(=O)N[C@@H](Cc2ccccc2)C[C@H](O)[C@H](Cc2ccccc2)NC(=O)OCc2cncs2)C(C)C)cs1 , give the reported Tmax.
Response: 4.5

----------
Experiment: Two-way crossover drug interaction study: plasma ritonavir PK with (Treatment A) and without (Treatment B) TH9507
Type: in vivo, human
Conditions: both sexes, human, plasma, oral, 100 mg; read-out: Tmax Treatment B
Metric name: Tmax

Query: For the molecule shown here, CC(C)c1nc(CN(C)C(=O)N[C@H](C(=O)N[C@@H](Cc2ccccc2)C[C@H](O)[C@H](Cc2ccccc2)NC(=O)OCc2cncs2)C(C)C)cs1 , give the reported Tmax.
Response: 4.5 h
